assay: Fluorescence emission spectra of rhodol dyes (uncorrected); format: physicochemical; conditions: aqueous 50 mM phosphate buffer at pH 8.0-9.0
ENDPOINT: Em Max
Express your answer as a number followed by its unit.

Consider the worked cases shown below.
INSERT INTO assay_data (chemical_structure, endpoint_result) VALUES
  ('O=C(O)c1ccc(C(=O)O)c(-c2c3cc(Cl)c(=O)cc-3oc3cc4c(cc23)CCCN4)c1', '546 nm'),
  ('O=C(CI)NCCCCCNC(=O)CCc1cc2c(-c3ccccc3C(=O)O)c3cc4c5c(c3oc-2cc1=O)CCCN5CCC4', '572 nm'),
  ('N#Cc1c2cc(CCC(=O)O)c(=O)cc-2oc2c3c4c(cc12)CCCN4CCC3', '664 nm');

Next:
Query (compound): `O=C(O)CCc1cc2c(C(F)(F)F)c3cc4c5c(c3oc-2cc1=O)CCCN5CCC4` ; field requested: Em Max
635 nm
